Origin of measurements: the DeepSol protein solubility set

# experimental.details: soluble on expression in E. coli; label from the status in PepcDB or PDB records
observed.property: soluble on expression in E. coli

- MGSDKIHHHHHHMGDLPGLVRLSIALRIQPNDGPVFYKVDGQRFGQNRTIKLLTGSSYKVEVKIKPSTLQVENISIGGVLVPLELKSKEPDGDRVVYTGTYDTEGVTPTKSGERQPIQITMPFTDIGTFETVWQVKFYNYHKRDHCQWGSPFSVIEYECKPNETRSLMWVNKESFL: not soluble
- MGSDKIHHHHHHMNKPKVPPTITEQPDEQTFAYLLAHIQQTRQQVFAQVNTALIELYWSVGKTISEKVVSAGWGKGVVKQLAAYLASQAPDIKGFSDKNLWRMKQFYETYQHDIKLASLVRVLPWTHNTIIFSRCKSNREREHYLMLVQRERLSSRELERHINAAHFERSLIEQPKLSAVLRQSHPIANTIFKDNYTLEFLGLPSSHSESDLQKAIINNLKTFILELGKDFIFIDEEYRLQVGNQDFYIDLLFFHRGLAALVAFELKIGKFSPQHLGQLDFYLEALDRDVKKPHENPSIGVLLCRDKDDEVVEYALSRNLSPTLVAQYQCQMPDKQLLQAKLHQLLQDLPAQDELASQHMTEQMPRQGEYNE: not soluble

---

# experimental.details: soluble on expression in E. coli; label from the status in PepcDB or PDB records
observed.property: soluble on expression in E. coli

- MGHPETTKFHHLSTKVTISVPEEECYGSTNRTSFNGEDIEEVLEAILKSGMKLKMEKSNFGHAKIKFLGYIVLEEGIQTDPKTIKAIAKFPQPENVTDVRKFIGFALY: not soluble
- GPGSMERIPLVVRRMVAAEQSCGFVHFFASLADASATPLVIEAKAFSSAAAGGAADDAAPTYQLVYDVMRSRNGHILFKKSYAERFTHSLALAAPVHALPAQLRSLVQSRLQAYIESPGVYLDGATERNVKLLSWIPATAASTTQEEAFPIPGIVMLVKSSYPSESMYREGAKLGLLFNAHRTNPNAKVAQMGLRDRANAYLAENDVYEVLLVHDAADAYLVPEGSRSNYLLQKSDGTWWCSAEEDILVGITLKTTYRVVQACGLGSVQHAKLTLKDILESKSLFILGTSPTIMPVQSVLLYRDTETRRLYEEAVRGLGTTAGTVQQVSDDKAELLFPVNVELAAALRAQYFAEAASS: not soluble
- MFEKVIKLWRDTFPKSEHKLMSIEYVAAIEEFNEYFPGYAAMNDSNYSKLQHFFRSLHPIGCIKPFRFHYSSAFALENSLDDYLLKNAQFKRDGLAGEWAIHIFADHNDHIIEKYRMYKKKRLEKLERTFEERKKKAER: not soluble

---

# experimental.details: soluble on expression in E. coli; label from the status in PepcDB or PDB records
observed.property: soluble on expression in E. coli

* GSMPKPGILKSKSMFCVIYRSSKRDQTYLYVEKKDDFSRVPEELMKGFGQPQLAMILPLDGRKKLVNADIEKVKQALTEQGYYLQLPPPPEDLLKQHLSVMGQKTDDTNK | soluble
* MGSTSTPDSSTNRLQDKVAIITGGAGGIGETTAKLFVRYGAKVVIADIADDHGQKVCNNIGSPDVISFVHCDVTKDEDVRNLVDTTIAKHGKLDIMFGNVGVLSTTPYSILEAGNEDFKRVMDINVYGAFLVAKHAARVMIPAKKGSIVFTASISSFTAGEGVSHVYTATKHAVLGLTTSLCTELGEYGIRVNCVSPYIVASPLLTDVFGVDSSRVEELAHQAANLKGTLLRAEDVADAVAYLAGDESKYVSGLNLVIDGGYTRTNPAFPTALKHGLA | soluble
